Biological target: HGF (hepatocyte growth factor/scatter factor) (UniProt P14210;P14210 P14210:32-494,P14210:495-728)
Sequence (P14210 32-494, chain 1 of 2): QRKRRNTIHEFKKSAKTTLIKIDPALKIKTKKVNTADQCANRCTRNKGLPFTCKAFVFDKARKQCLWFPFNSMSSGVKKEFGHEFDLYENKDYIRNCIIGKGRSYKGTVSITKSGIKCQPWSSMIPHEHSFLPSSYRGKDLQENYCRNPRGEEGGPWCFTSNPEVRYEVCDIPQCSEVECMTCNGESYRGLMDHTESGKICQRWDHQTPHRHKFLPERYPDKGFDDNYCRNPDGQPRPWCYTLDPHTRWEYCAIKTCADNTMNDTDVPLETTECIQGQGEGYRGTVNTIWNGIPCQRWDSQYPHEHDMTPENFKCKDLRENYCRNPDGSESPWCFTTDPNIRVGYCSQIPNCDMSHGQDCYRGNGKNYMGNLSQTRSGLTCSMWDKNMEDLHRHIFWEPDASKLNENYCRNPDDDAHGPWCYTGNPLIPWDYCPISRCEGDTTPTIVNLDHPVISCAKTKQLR
Sequence (P14210 495-728, chain 2 of 2): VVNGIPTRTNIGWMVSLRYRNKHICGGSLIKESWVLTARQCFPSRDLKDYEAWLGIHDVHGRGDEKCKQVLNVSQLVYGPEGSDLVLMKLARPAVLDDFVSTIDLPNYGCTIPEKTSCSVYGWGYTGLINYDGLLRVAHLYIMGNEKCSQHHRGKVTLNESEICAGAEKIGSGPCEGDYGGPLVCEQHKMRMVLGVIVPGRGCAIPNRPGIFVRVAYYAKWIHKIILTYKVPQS
Assay: filter; HBSMC, 37C
Settings: tags: R&D Systems
Note to self: use Y only for Kd readings below 0.1 nM; a reading exactly at 0.1 nM still gets N.

Regarding 8-203 (ssRNA, 2'-F pyrimidines) RNA: GGGAGGACGAUGCGGCGCGAGCCUAUUUAUGUCAUCAUGUCUGUGCAGACGACUCGCCCGA , kindly confirm whether its Kd is beneath 0.1 nM.
N

Regarding 11-215 (ssRNA, 2'-F pyrimidines) RNA: GGGAGGACGAUGCGGGUAGUGAGUUUUCAUUGUCUUGUCCCCGUGCAGACGACUCGCCCGA , kindly confirm whether its Kd is beneath 0.1 nM.
Y

Regarding 11-222 (ssRNA, 2'-F pyrimidines) RNA: GGGAGGACGAUGCGGACAUAAGUCUUCUAUAGCUCGUCCUUUGUGCAGACGACUCGCCCGA , kindly confirm whether its Kd is beneath 0.1 nM.
Y

Regarding 10-40 (ssRNA, 2'-F pyrimidines) RNA: GGGAGAUAAGAAUAAACGCUCAAUGUCGUUAGUUUAUUGACAAGGCCCGAAGUUCGACAGGAGGCUCACAACAGGC , kindly confirm whether its Kd is beneath 0.1 nM.
N

Regarding 8-114 (ssRNA, 2'-F pyrimidines) RNA: GGGAGGACGAUGCGGCGUGAGCCUAUUUAUGUCAUCAUGUCUGUGCAGACGACUCGCCCGA , kindly confirm whether its Kd is beneath 0.1 nM.
Y

Regarding 10-53 (ssRNA, 2'-F pyrimidines) RNA: GGGAGAUAAGAAUAAACGCUCAAGGCCUCCAACCGCUAAAGGUUCCAUUCUUGUUCGACAGGAGGCUCACAACAGGC , kindly confirm whether its Kd is beneath 0.1 nM.
N

Regarding 11-17 (ssRNA, 2'-F pyrimidines) RNA: GGGAGGACGAUGCGGGUUAGAGCGUGACAGUCGUCUUAUCCCGGGUCACAGACGACUCGCCCGA , kindly confirm whether its Kd is beneath 0.1 nM.
N

Regarding 10-2 (ssRNA, 2'-F pyrimidines) RNA: GGGAGAUAAGAAUAAACGCUCAAGCCUGAGUUAAACAUGACGGUUUGUGACCCUUCGACAGGAGGCUCACAACAGGC , kindly confirm whether its Kd is beneath 0.1 nM.
Y

Regarding 8-171 (ssRNA, 2'-F pyrimidines) RNA: GGGAGGACGAUGCGGCGGGAGCCUUUUUAUGUCAUCAUGUCUGUGCAGACGACUCGCCCGA , kindly confirm whether its Kd is beneath 0.1 nM.
N

Regarding 8-222 (ssRNA, 2'-F pyrimidines) RNA: GGGAGGACGAUGCGGUGUGAACCUAUUUAUGCCAUUAUGUCUGUGCAGACGACUCGCCCGA , kindly confirm whether its Kd is beneath 0.1 nM.
N

Regarding 11-217 (ssRNA, 2'-F pyrimidines) RNA: GGGAGGACGAUGCGGCGUGAGCCUUCCAAUGACGUCGUCCUUGGCCAGACGACUCGCCCGA , kindly confirm whether its Kd is beneath 0.1 nM.
Y

Regarding 11-151 (ssRNA, 2'-F pyrimidines) RNA: GGGAGGACGAUGCGGUGAGUCAUAGUGUUGAUCGUCGUAUCCCGUCAGACGACUCGCCCGA , kindly confirm whether its Kd is beneath 0.1 nM.
N

Regarding 11-221 (ssRNA, 2'-F pyrimidines) RNA: GGGAGGACGAUGCGGGCAGAGCGAAAAUCGUCUUGUCCCCGACGCCAGACGACUCGCCCGA , kindly confirm whether its Kd is beneath 0.1 nM.
Y

Regarding 11-165 (ssRNA, 2'-F pyrimidines) RNA: GGGAGGACGAUGCGGGUUGAUAGGAGUCAUCAUCGUCUUGUCCGCCAGACGACUCGCCCGA , kindly confirm whether its Kd is beneath 0.1 nM.
Y

Regarding 11-212 (ssRNA, 2'-F pyrimidines) RNA: GGGAGGACGAUGCGGGUUUGAGUUAAACAUCGGUUUUCUCCUGCAGACGACUCGCCCGA , kindly confirm whether its Kd is beneath 0.1 nM.
Y

Regarding 11-158 (ssRNA, 2'-F pyrimidines) RNA: GGGAGGACGAUGCGGCGAUAGCCUAUUUAUGACCUCGUCCCCGUGCAGACGACUCGCCCGA , kindly confirm whether its Kd is beneath 0.1 nM.
N
